# System tested: Neuropeptide Y receptor type 5 (Gallus gallus)
# Sequence (Q8QFM2 whole entry): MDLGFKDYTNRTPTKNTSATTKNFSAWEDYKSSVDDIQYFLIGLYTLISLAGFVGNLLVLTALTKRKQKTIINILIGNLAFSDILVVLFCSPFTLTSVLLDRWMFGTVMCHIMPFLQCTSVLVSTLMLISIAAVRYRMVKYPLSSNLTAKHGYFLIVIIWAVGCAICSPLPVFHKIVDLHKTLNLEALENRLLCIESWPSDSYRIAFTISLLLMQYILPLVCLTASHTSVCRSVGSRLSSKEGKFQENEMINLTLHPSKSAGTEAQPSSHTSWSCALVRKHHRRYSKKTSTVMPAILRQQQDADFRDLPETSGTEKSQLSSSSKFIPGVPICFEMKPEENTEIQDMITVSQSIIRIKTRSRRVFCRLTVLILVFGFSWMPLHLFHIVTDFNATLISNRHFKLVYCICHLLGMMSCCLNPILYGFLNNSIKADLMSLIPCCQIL
Metric name: pKi
Units for pKi: none; it is -log10 of a concentration expressed in mol/L.

State the recorded pKi for this entry: O=c1oc2ccccc2c(O)c1C1CC(c2ccc(-c3ccccc3)cc2)Cc2ccccc21 (stereo unspecified) 9.09

----------
A collection of compounds and their measured pKi
# System tested: Neuropeptide Y receptor type 1 (Gallus gallus, UniProt Q8QFM1)
# Sequence (Q8QFM1 whole entry): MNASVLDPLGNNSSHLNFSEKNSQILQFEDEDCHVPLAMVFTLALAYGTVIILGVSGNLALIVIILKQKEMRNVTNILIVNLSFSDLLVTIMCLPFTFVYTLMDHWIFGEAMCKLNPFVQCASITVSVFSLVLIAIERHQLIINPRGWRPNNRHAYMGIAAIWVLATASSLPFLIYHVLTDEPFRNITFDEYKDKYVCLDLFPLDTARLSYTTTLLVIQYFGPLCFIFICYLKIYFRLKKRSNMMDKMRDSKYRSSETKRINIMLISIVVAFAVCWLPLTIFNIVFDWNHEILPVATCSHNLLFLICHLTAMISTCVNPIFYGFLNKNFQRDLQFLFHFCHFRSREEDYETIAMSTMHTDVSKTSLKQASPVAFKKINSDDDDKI
pKi: −log10 of the molar value.

Would you please look over these solved cases?
Compound	Metric name	Val
NC(N)=NCCCC(NC(=O)CC1(CC(=O)N2CCN(C3c4ccccc4NC(=O)c4ccccc43)CC2)CCCC1)C(=O)NCCn1c(=O)n(-c2ccccc2)n(-c2ccccc2)c1=O (centres undefined)	pKi	< 5.00
O=c1oc2ccccc2c(O)c1C1CC(c2ccc(-c3ccccc3)cc2)Cc2ccccc21 (centres undefined)	pKi	< 5.00

Please provide the recorded pKi for CN(C)CC1CCC(CN=C(N)c2ccc(CC(NC(=O)C(Cc3ccccc3)NS(=O)(=O)c3ccc4ccccc4c3)C(=O)N3CCCC3)cc2)CC1 (centres undefined) , tested on Neuropeptide Y receptor type 1 (Gallus gallus, UniProt Q8QFM1). < 5.00

Request - read-out pKi | tested on Neuropeptide Y receptor type 1 (Gallus gallus, UniProt Q8QFM1) | compound Nc1nc(NC[C@H]2CC[C@H](CNS(=O)(=O)c3cccc4ccccc34)CC2)nc2ccccc12 < 5.00
